The measured values listed here are drawn from paper PMC6479694.

target.or.system: DHFR from E. coli (Escherichia coli)
Construct: made in house
Sequence (P0ABQ4 whole entry): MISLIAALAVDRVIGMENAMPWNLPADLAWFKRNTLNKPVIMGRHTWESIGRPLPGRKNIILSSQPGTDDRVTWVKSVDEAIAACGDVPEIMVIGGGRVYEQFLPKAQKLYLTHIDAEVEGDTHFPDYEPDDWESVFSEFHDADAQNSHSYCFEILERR
assay: Fluorimetric binding assay, quenching of DHFR tryptophan emission (λexc = 280 nm)
experimental.context: 10 °C, without NADPH; read-out: Kd ± s.d. (10 °C) (converted)
# label = yes if Kd < 7 µM else no

## Input Hello, is Kd of the following compound strictly smaller than 7 µM? [Cl][Au]([PH](c1ccccc1)(c1ccccc1)c1ccccc1)[PH](c1ccccc1)(c1ccccc1)c1ccccc1
## Output yes

## Input Dear reviewer, please state whether COC(=O)c1ccc(P(c2ccccc2)c2ccccc2)cc1.COC(=O)c1ccc(P(c2ccccc2)c2ccccc2)cc1.COC(=O)c1ccc(P(c2ccccc2)c2ccccc2)cc1.[Cl][Au] has Kd strictly beneath 7 µM.
## Output no

## Input Dear colleague, could you confirm whether Kd of O=C(O)c1ccc(P(c2ccccc2)c2ccccc2)cc1.O=C(O)c1ccc(P(c2ccccc2)c2ccccc2)cc1.O=C(O)c1ccc(P(c2ccccc2)c2ccccc2)cc1.[Cl][Au] falls below 7 µM? Thanks.
## Output yes

## Input I wonder whether O=C(O)c1ccc(P(c2ccccc2)c2ccccc2)cc1.O=C(O)c1ccc(P(c2ccccc2)c2ccccc2)cc1.[Cl][Au] has Kd below 7 µM. Can you tell?
## Output yes
